Tested on: HL-60
TEST_NAME: NCI tumour cell line growth inhibition, 48 h
Calls of active or inactive are those of the source. Rule as the data show it: active = GI50 up to about 1.1 µM and inactive = higher.
// allowed return values: active, inactive

Check out these entries, answers already filled in.
CC(=O)Oc1c(C)c2c(c3ccccc13)OC(C)(C)C2; inactive
O=C(N/N=C\c1ccc([N+](=O)[O-])cc1)Nc1ccccc1; inactive
COc1cc(C2c3cc4c(cc3OC(C)(O)C2C)OCO4)cc(OC)c1OC (configuration not stated); active
CC1(C)OCN(c2ccc(S(N)(=O)=O)cc2)Cn2c1nc1ccccc12; inactive
CCOP(=O)(OCC)C(c1ccc(F)cc1)N(C(=O)NC(F)(F)F)c1ccc(F)cc1 (configuration not stated); inactive
FC1=C2C3CCC(C3)C2C1(F)F (configuration not stated); inactive

q: Called result for "COC(=O)c1ccc(/C=C/c2cc(O)ccc2O)cc1"
a: active

q: Called result for "Nc1ncnc2c1ncn2[C@@H]1C[C@H]1CO"
a: inactive

q: Called result for "CCc1n[nH]c(=O)n1N"
a: inactive

q: Called result for C#CCNC(=O)NCCCCC(NC(=O)OCc1ccccc1)C(=O)OCc1ccccc1 (configuration not stated)
a: inactive

q: Called result for Cc1cc2ncn(C3CCCO3)c2cc1C (configuration not stated)
a: inactive

q: Called result for COC1OC(CO)C(O)C(OC(=O)c2cc(O)c(O)c(O)c2)C1OC(=O)c1cc(O)c(O)c(O)c1 (configuration not stated)
a: inactive
